Values from the Human Domainome abundance scans (Beltran et al. 2025)

Consider the following variants; for each one, report its abundance fitness.
B1: DnaJ homolog subfamily C member 2, residues 451 to 503; numbered along this chain, Q99543 (parent)
chain: SKNWSEDDLQLLIKAVNLFPAGTNSRWEVIANYMNIHSSSGVKRTAKDVIGKA

- Variants of: B1
- PROTOCOL_DETAILS: abundance fitness (aPCA) (normalised: wild type 0, dead -1); higher = more abundant; growth selection in yeast, the domain comes from the species named
- APPLIED_CONDITIONS: Homo sapiens
One number for each entry.

INSERT INTO results (residue_change, test_value) VALUES
  ('S38K', -0.517),
  ('W4K', -0.758),
  ('V49N', -0.938);

Parameters: items (list). Returns: abundance fitness for each item.
1. D7M
2. N35Y
3. K2F
4. D48T
5. N24T
6. T23S
7. W4I
8. S38Q

Found:
[0.037, -0.775, -0.314, -0.563, -0.024, -0.276, -0.465, -0.176]

Parameters: items (list). Returns: abundance fitness for each item.
1. M34F
2. A15D
3. P20N

Found:
1. -0.317
2. -0.777
3. -0.292

Parameters: items (list). Returns: abundance fitness for each item.
1. Y33C
2. A46Q
3. G51L

Found:
-0.996
-0.089
-0.159
